meta.source: ChEMBL document CHEMBL5543097

# maps each entry to its MIC
System: Moraxella catarrhalis
Test: Antibacterial activity against Moraxella catarrhalis BCA 19-6 assessed as inhibition of bacterial growth incubated for 24 hrs by CLSI based broth microdilution method
Type: functional
Details: Moraxella catarrhalis, BCA 19-6, 24 h, read-out: MIC
Number in µg/mL, nothing else.

A selection of reference data follows.
CC[C@H]1OC(=O)[C@@](C)(F)C(=O)[C@H](C)[C@@H](O[C@@H]2O[C@H](C)C[C@H](N(C)C)[C@H]2O)[C@](C)(OC)C[C@@H](C)C(=O)[C@H](C)[C@H]2N(CCCOC(=O)Nc3cccc(Cl)c3)C(=O)O[C@]12C
2.25
CCOc1ccccc1NC(=O)OCCCN1C(=O)O[C@]2(C)[C@@H](CC)OC(=O)[C@@](C)(F)C(=O)[C@H](C)[C@@H](O[C@@H]3O[C@H](C)C[C@H](N(C)C)[C@H]3O)[C@](C)(OC)C[C@@H](C)C(=O)[C@H](C)[C@@H]12
0.125
CC[C@H]1OC(=O)[C@@](C)(F)C(=O)[C@H](C)[C@@H](O[C@@H]2O[C@H](C)C[C@H](N(C)C)[C@H]2O)[C@](C)(OC)C[C@@H](C)C(=O)[C@H](C)[C@H]2N(CCCOC(=O)Nc3ccc(C(C)C)cc3)C(=O)O[C@]12C
0.25
CC[C@H]1OC(=O)[C@H](C)[C@@H](O[C@H]2C[C@@](C)(OC)[C@@H](O)[C@H](C)O2)[C@H](C)[C@@H](O[C@@H]2O[C@H](C)C[C@H](N(C)C)[C@H]2O)[C@](C)(O)C[C@@H](C)C(=O)[C@H](C)[C@@H](O)[C@]1(C)O
64

Reported MIC ( CCOc1ccc(NC(=O)OCCCN2C(=O)O[C@]3(C)[C@@H](CC)OC(=O)[C@@](C)(F)C(=O)[C@H](C)[C@@H](O[C@@H]4O[C@H](C)C[C@H](N(C)C)[C@H]4O)[C@](C)(OC)C[C@@H](C)C(=O)[C@H](C)[C@@H]23)cc1 ) = 1

MIC measured on CC[C@H]1OC(=O)[C@@](C)(F)C(=O)[C@H](C)[C@@H](O[C@@H]2O[C@H](C)C[C@H](N(C)C)[C@H]2O)[C@](C)(OC)C[C@@H](C)C(=O)[C@H](C)[C@H]2N(CCCOC(=O)Nc3cc(C)cc(C)c3)C(=O)O[C@]12C = 1
